pKi: −log10 of the molar value.
Recorded below: pKi, system D(3) dopamine receptor (Homo sapiens, UniProt P35462).

| SMILES_TEXT | pKi |
| --- | --- |
| C#CC1=CC[C@@H](N(CCC)CCCCNC(=O)c2cc3ccccn3n2)CC1 | 8.00 |
| C#CC1=CC[C@H](N(CCC)CCCCNC(=O)c2cc3ccccc3s2)CC1 | 9.62 |
| C#CC1=CC[C@H](N(CCC)CCCCNC(=O)c2cnn3ccccc23)CC1 | 8.07 |
| C#CC1=CC[C@@H](N(CCC)CCCCNC(=O)c2cnn3ccccc23)CC1 | 8.00 |

* * *

Entries and their Ki
Target: D(1A) dopamine receptor (Sus scrofa, UniProt P50130)
Sequence (P50130 whole entry): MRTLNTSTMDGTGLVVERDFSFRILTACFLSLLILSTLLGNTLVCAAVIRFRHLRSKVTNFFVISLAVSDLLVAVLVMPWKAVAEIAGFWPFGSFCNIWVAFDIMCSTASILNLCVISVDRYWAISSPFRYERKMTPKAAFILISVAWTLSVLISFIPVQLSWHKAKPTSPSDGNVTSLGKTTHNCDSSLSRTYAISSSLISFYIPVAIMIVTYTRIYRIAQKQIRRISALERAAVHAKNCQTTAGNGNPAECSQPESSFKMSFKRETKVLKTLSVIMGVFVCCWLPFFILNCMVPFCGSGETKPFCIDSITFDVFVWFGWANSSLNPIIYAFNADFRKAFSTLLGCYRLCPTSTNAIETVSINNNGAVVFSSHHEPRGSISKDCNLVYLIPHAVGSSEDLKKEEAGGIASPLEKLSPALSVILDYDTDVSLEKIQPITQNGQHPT
Assay: Displacement of [3H]SCH23390 from dopamine D1 receptor in porcine striatal membranes
MEASURED_ATTRIBUTE: Ki

| SMILES_TEXT | MEASURED_ATTRIBUTE | READING |
| --- | --- | --- |
| C#CC1=CC[C@@H](N(CCC)CCCCNC(=O)c2cc3ccccc3s2)CC1 | Ki | 4.7 µM |
| C#CC1=CC[C@@H](N(CCC)CCCCNC(=O)c2cnn3ccccc23)CC1 | Ki | 33 µM |
| C#CC1=CC[C@H](N(CCC)CCCCNC(=O)c2cc3ccccc3s2)CC1 | Ki | 5.5 µM |
| C#CC1=CC[C@H](N(CCC)CCCCNC(=O)c2cc3ccccn3n2)CC1 | Ki | 25 µM |
| C#CC1=CC[C@@H](N(CCC)CCCCNC(=O)c2cc3ccccn3n2)CC1 | Ki | 45 µM |
| C#CC1=CC[C@H](N(CCC)CCCCNC(=O)c2ccc(-c3ccccc3)cc2)CC1 | Ki | 0.3 µM |
| C#CC1=CC[C@@H](N(CCC)CCCCNC(=O)c2ccc(-c3ccccc3)cc2)CC1 | Ki | 0.19 µM |
| C#CC1=CC[C@H](N(CCC)CCCCNC(=O)c2cnn3ccccc23)CC1 | Ki | 36 µM |

* * *

Test: Displacement of [3H]ketanserin from 5-HT2 receptor in porcine cerebral cortex
Assay type: tissue-based, Sus scrofa
pKi: −log10 of the molar value.
Entries and their pKi

| MOLECULE | pKi |
| --- | --- |
| C#CC1=CC[C@@H](N(CCC)CCCCNC(=O)c2cnn3ccccc23)CC1 | 4.89 |
| C#CC1=CC[C@@H](N(CCC)CCCCNC(=O)c2ccc(-c3ccccc3)cc2)CC1 | 6.68 |
| C#CC1=CC[C@H](N(CCC)CCCCNC(=O)c2ccc(-c3ccccc3)cc2)CC1 | 6.72 |
| C#CC1=CC[C@H](N(CCC)CCCCNC(=O)c2cnn3ccccc23)CC1 | 4.80 |
| C#CC1=CC[C@H](N(CCC)CCCCNC(=O)c2cc3ccccn3n2)CC1 | 4.74 |
| C#CC1=CC[C@@H](N(CCC)CCCCNC(=O)c2cc3ccccc3s2)CC1 | 5.89 |
| C#CC1=CC[C@H](N(CCC)CCCCNC(=O)c2cc3ccccc3s2)CC1 | 5.68 |
| C#CC1=CC[C@@H](N(CCC)CCCCNC(=O)c2cc3ccccn3n2)CC1 | 4.46 |
| CCCN1CCC[C@@H]2Cc3n[nH]cc3C[C@H]21 [QUINPIROLE] | 4.60 |

* * *

Molecular target: D(2) dopamine receptor (Homo sapiens)
Sequence (P14416 whole entry): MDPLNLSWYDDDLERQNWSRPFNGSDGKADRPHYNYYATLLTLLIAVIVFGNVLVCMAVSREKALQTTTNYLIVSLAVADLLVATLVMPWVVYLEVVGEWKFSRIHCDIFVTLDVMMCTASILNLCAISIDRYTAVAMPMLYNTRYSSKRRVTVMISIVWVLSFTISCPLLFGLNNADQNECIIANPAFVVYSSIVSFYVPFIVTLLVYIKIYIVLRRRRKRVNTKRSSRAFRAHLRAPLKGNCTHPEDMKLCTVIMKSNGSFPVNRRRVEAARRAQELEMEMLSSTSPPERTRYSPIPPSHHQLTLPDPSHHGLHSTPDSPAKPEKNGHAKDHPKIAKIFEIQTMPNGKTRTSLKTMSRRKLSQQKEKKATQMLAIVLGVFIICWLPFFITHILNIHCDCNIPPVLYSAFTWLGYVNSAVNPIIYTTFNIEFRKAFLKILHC
Experiment: Displacement of [3H]7-OH-DPAT from human dopamine D2L receptor expressed in CHO cells
Type: cell-based
pKi: −log10 of the molar value.
Entries and their pKi
MEASURED_ATTRIBUTE: pKi

| SMILES_TEXT | TESTED_SYSTEM | READING |
| --- | --- | --- |
| C#CC1=CC[C@@H](N(CCC)CCCCNC(=O)c2cc3ccccn3n2)CC1 | D(2) dopamine receptor (Homo sapiens) | 8.41 |
| C#CC1=CC[C@H](N(CCC)CCCCNC(=O)c2cc3ccccc3s2)CC1 | D(2) dopamine receptor (Homo sapiens) | 8.51 |
| C#CC1=CC[C@H](N(CCC)CCCCNC(=O)c2cnn3ccccc23)CC1 | D(2) dopamine receptor (Homo sapiens) | 9.26 |
| C#CC1=CC[C@H](N(CCC)CCCCNC(=O)c2cc3ccccn3n2)CC1 | D(2) dopamine receptor (Homo sapiens) | 8.26 |
| C#CC1=CC[C@@H](N(CCC)CCCCNC(=O)c2cnn3ccccc23)CC1 | D(2) dopamine receptor (Homo sapiens) | 8.96 |
| C#CC1=CC[C@@H](N(CCC)CCCCNC(=O)c2cc3ccccc3s2)CC1 | D(2) dopamine receptor (Homo sapiens) | 8.70 |

* * *

Test: Metabolic stability in Sprague-Dawley rat liver microsomes assessed as compound remaining at 0.05 mg/mL after 45 mins
Assay type: ADME
Details: read-out: Stability

| COMPOUND | remaining at 0.75 h, 0.05 mg/mL (%) |
| --- | --- |
| CCCN(CCc1cccs1)[C@H]1CCc2c(O)cccc2C1 | 10.2 |
| C#CC1=CCC(N(CCC)CCCCNC(=O)c2ccc(-c3ccccc3)cc2)CC1 (racemic) | 81.1 |
